- Protocol notes: chemical genetic growth profiling, strain panel (AID 1159580);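 further: tested at 20 µM; growth read once vehicle control cultures reached saturation at 30 °C; 1 = growth at the plate median or of vehicle wells; lower values mean less growth of the strain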
- Stated conditions: S. cerevisiae deletion strains, growth OD, locus YJL095W, strain BCK1, hits give low values
Screen size: about 5,500 compounds; about 2,000 (36%) were called active. About 18% were inconclusive and are not listed. The list shows a part of the results.
Below, each entry is listed alongside its reported normalized growth.

| Compound | normalized growth |
| --- | --- |
| O=C(O)c1c2ccccc2cc2ccccc12 | 1 |
| COc1cc(NC(=S)NC(=O)c2ccccc2)c(OC)cc1Cl | 0.961 |
| O=c1c(Sc2ccc(Cl)cc2)c(Sc2ccc(Cl)cc2)c1=O | 0.128 |
| COc1cc2c(cc1OC)C1C(=O)c3c(O)cc4c(c3OC1CO2)C=CC(C)(C)O4 (centres undefined) | 1.01 |
| CC[N+](C)(CC)CCOC(=O)C(O)(c1ccccc1)C1CCCCC1 (centres undefined) | 0.982 |
| CC(=O)O[C@@H]1C[C@@]2(C)C(CC[C@@H]2C(C)=O)C2CCC3=CC(=O)CC[C@]3(C)C21 (some centres undefined) | 0.997 |
| CC(=O)O[C@H]1[C@@H]2[C@@H](OC(=O)Cc3ccccc3)[C@@H](C)C[C@]2(OC(C)=O)C(=O)/C(C)=C/[C@H]2[C@H](CC[C@@]13CO3)C2(C)C | 0.989 |
| CC(=O)OCC(=O)[C@@]1(O)[C@@H](C)CC2C3CCC4=CC(=O)C=C[C@]4(C)[C@@]3(F)[C@@H](O)C[C@@]21C (some centres undefined) | 1.01 |
| CCN(CCO)CCCC(C)Nc1ccnc2cc(Cl)ccc12 (centres undefined) | 1.01 |
| COc1cc2c(cc1OC)C1C(=O)c3c(OC)cc4c(c3OC1CO2)CCC(C)(C)O4 (centres undefined) | 1.01 |
| Cc1cc(NNC(=O)c2ccccc2Cl)nc2c1c(C)nn2C | 0.968 |
| C=C1C2CC[C@H]3[C@]4(C)C[C@H](OC5OC(CO)C(OS(=O)(=O)O)C(OS(=O)(=O)O)C5OC(=O)CC(C)C)C[C@@H](C(=O)O)[C@H]4CC[C@]3(C2)[C@H]1O (some centres undefined) | 1.02 |
| C[C@@H]1[C@H]2[C@H](O[C@@H]3O[C@H](CO)[C@@H](O)[C@H](O)[C@H]3O)OC=C(C(=O)O)[C@H]2C[C@@H]1O | 0.996 |
| CC1CC2C3CCC4=CC(=O)C=C[C@]4(C)[C@@]3(F)[C@@H](O)C[C@]2(C)[C@@]1(O)C(=O)CO (some centres undefined) | 0.96 |
| COc1cc(NC(=S)NNS(=O)(=O)c2ccc(C)cc2)c(OC)cc1Cl | 0.927 |
| CCN(CC)CC#CCOC(=O)C(O)(c1ccccc1)C1CCCCC1 (centres undefined) | 1.05 |
| Cc1nnsc1C(=O)NNc1ccc(F)cc1F | 0.544 |
| Cc1ncc(CSSCc2cnc(C)c(O)c2CO)c(CO)c1O | 0.995 |
| CC(=O)C1CCC2C3CC(=O)C4=CC(=O)CCC4(C)C3CCC12C (centres undefined) | 0.965 |

###

- Protocol notes: chemical genetic growth profiling, strain panel (AID 1159580);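 further: tested at 20 µM; growth read once vehicle control cultures reached saturation at 30 °C; 1 = growth at the plate median or of vehicle wells; lower values mean less growth of the strain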
- Stated conditions: S. cerevisiae deletion strains, growth OD, locus YGL248W, strain PDE1
In all, about 5,500 compounds went through this assay and about 2,000 (36%) were called active. Another 18% or so got no clear call; they are omitted. Rule as the data show it: active = normalized growth mostly below about 0.91 (no sharp cut-off); inconclusive = no clear call, values can overlap the other calls; inactive = mostly above about 0.92. The list shows a part of the results.
Outcome codes: 1.0 (active), 0.0 (inactive)

| Compound | Answer label |
| --- | --- |
| CCC(=O)O[C@H]1[C@H](O[C@@H]2[C@@H](C)[C@H](O[C@H]3C[C@@](C)(OC)[C@@H](O)[C@H](C)O3)[C@@H](C)C(=O)O[C@H](CC)[C@@](C)(O)[C@H](O)[C@@H](C)C(=O)[C@H](C)C[C@@]2(C)O)O[C@H](C)C[C@@H]1N(C)C | 0.0 |
| CCOC(=O)c1c(C)cc(O)c(C=O)c1O | 1.0 |
| COc1cc(O)c(C(=O)/C=C/c2ccccc2)c(OC)c1 | 1.0 |
| CCOC(=O)c1c(C)cc(O)c(C)c1O | 0.0 |
| C=C1C2CC[C@H]3[C@]4(C)C[C@H](OC5OC(CO)C(OS(=O)(=O)O)C(OS(=O)(=O)O)C5OC(=O)CC(C)C)C[C@@H](C(=O)O)[C@H]4CC[C@]3(C2)[C@H]1O (stereo not given in full) | 0.0 |
| C=C1C([C@]2(C)C(CC(=O)OC)[C@@](C)(COC(C)=O)OC(=O)C[C@@H]2OC(C)=O)[C@@H](OC=O)[C@H](OC(=O)C(OC(C)=O)C(C)CC)[C@@]2(C)[C@H](c3ccoc3)CC(=O)C12O (stereo not given in full) | 0.0 |
| CCC(C)C(OC(C)=O)C(=O)OC1C(O)C2C3(C)C=CC(=O)C(C)(C)C3CC(OC(=O)C(O)C(C)C)C2(C)C23OC2CC(c2ccoc2)C13C (stereo not given) | 0.0 |
| CC1(C)OC(=O)NC1=O | 0.0 |
| ClC1=C(Cl)C2(Cl)C3C(Cl)C=CC3C1(Cl)C2(Cl)Cl (stereo not given) | 0.0 |
| CCC(C)C(=O)O[C@H]1[C@H](O)C2C(CN3CC(C)CCC3[C@@]2(C)O)C2C[C@]34O[C@]5(O)C(OC(=O)C(C)(O)C(C)O)CC[C@@]3(C)C5C(OC(C)=O)[C@@H](OC(C)=O)C4[C@@]21O (stereo not given in full) | 0.0 |
| C[N+](C)(C)CCOC(N)=O | 0.0 |
| CC1=C(C(C)O)C2=NC1C=c1[nH]c(c(C)c1C(C)O)=Cc1[nH]c(c(CCC(=O)O)c1C)C=c1[nH]c(c(C)c1CCC(=O)O)=C2 (stereo not given) | 0.0 |
| Cc1cc(O)c(C)c(O)c1C(=O)O | 0.0 |
| C=C1C([C@]2(C)C(CC(=O)OC)[C@@](C)(COC(C)=O)OC(=O)C[C@@H]2OC(C)=O)[C@@H](OC=O)[C@H](OC(=O)C(O)C(C)CC)[C@@]2(C)[C@H](c3ccoc3)CC(=O)C12O (stereo not given in full) | 0.0 |
| CCCCNc1cc(C(=O)O)cc(S(N)(=O)=O)c1Oc1ccccc1 | 0.0 |

###

- Protocol notes: chemical genetic growth profiling, strain panel (AID 1159580);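 further: tested at 20 µM; growth read once vehicle control cultures reached saturation at 30 °C; 1 = growth at the plate median or of vehicle wells; lower values mean less growth of the strain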
- Stated conditions: S. cerevisiae deletion strains, growth OD, locus YEL061C, strain CIN8 (second series)
Hit rate of the full screen: of about 5,500 compounds, about 2,000 (36%) were called active. Another 18% or so got no clear call; they are omitted. Rule as the data show it: active = normalized growth mostly below about 0.91 (no sharp cut-off); inconclusive = no clear call, values can overlap the other calls; inactive = mostly above about 0.92. Some of the results follow.
Outcome codes: yes (1) for active, no (0) for inactive

| Molecule | Answer label |
| --- | --- |
| COc1cc(NC(C)CCCN)c2ncccc2c1 (stereo not given) | no (0) |
| COC1=C(OC)C(=O)C(C/C=C(\C)CC/C=C(\C)CC/C=C(\C)CC/C=C(/C)CC/C=C(\C)CC/C=C(\C)CC/C=C(\C)CC/C=C(\C)CC/C=C(\C)CCC=C(C)C)=C(C)C1=O | no (0) |
| CC1(C)OC(=O)NC1=O | no (0) |
| CCOC(=O)C(C)(C)Oc1ccc(Cl)cc1 | no (0) |
| CCN(CCO)CCCC(C)Nc1ccnc2cc(Cl)ccc12 (stereo not given) | no (0) |
| CCCCCCCCCCCCCCCC[N+](C)(C)C | yes (1) |
| COc1cc2c(cc1OC)[C@@H]1C(=O)c3ccc(O)c(CC=C(C)C)c3O[C@@H]1CO2 | no (0) |
| COc1ccc2cc([C@H](C)CO)ccc2c1 | no (0) |
| O=C(O)C1(O)C[C@@H](O)C(O)[C@H](O)C1 (stereo not given in full) | no (0) |
| CCN(CC)CCCC(C)Nc1c2ccc(Cl)cc2nc2ccc(OC)cc12 (stereo not given) | no (0) |
| C=Cc1c2[nH]c(c1C)C=c1[nH]c(c(C)c1C=C)=CC1N=C(C=c3[nH]c(c(C)c3CCC(=O)O)=C2)C(CCC(=O)O)=C1C (stereo not given) | no (0) |
| CCN(CC)CCNC(=O)c1cc(Br)c(N)cc1OC | no (0) |
| COc1cc2c(cc1OC)C(=O)OC2 | no (0) |
| CC(=O)O[C@H]1[C@@H]2[C@@H](OC(=O)Cc3ccccc3)[C@@H](C)C[C@]2(OC(C)=O)C(=O)/C(C)=C/[C@H]2[C@H](CC[C@@]13CO3)C2(C)C | no (0) |
| NC(=O)c1ccc[n+]([C@@H]2O[C@H](COP(=O)([O-])OP(=O)(O)OC[C@H]3O[C@@H](n4cnc5c(N)ncnc54)[C@H](O)[C@@H]3O)[C@@H](O)[C@H]2O)c1 | no (0) |
| NC(=O)C(c1ccccc1)(c1ccccc1)C1CCN(CCc2ccc3c(c2)CCO3)C1 (stereo not given) | no (0) |
| CC(=O)OCC(=O)[C@@]1(O)CCC2C3CCC4=CC(=O)CC[C@]4(C)C3C(=O)C[C@@]21C (stereo not given in full) | no (0) |
| CC1=C(/C=C/C(C)=C/C=C/C(C)=C/C=C/C=C(C)/C=C/C=C(C)/C=C/C2=C(C)C(=O)CCC2(C)C)C(C)(C)CCC1=O | no (0) |
| COC1=CC(=O)C[C@@H](C)[C@]12Oc1c(Cl)c(OC)cc(OC)c1C2=O | no (0) |
| CC1=C(C/C=C(\C)CCC[C@H](C)CCC[C@H](C)CCCC(C)C)C(=O)c2ccccc2C1=O | no (0) |
| CN(C)CC/C=C1\c2ccccc2Sc2ccc(Cl)cc21 | no (0) |
| CN1CCC(=C2c3ccccc3Sc3ccccc32)CC1 | no (0) |
| CC1=C(/C=C/C(C)=C/C=C/C(C)=C/C=C/C=C(C)/C=C/C=C(C)/C=C/C(=O)[C@]2(C)C[C@@H](O)CC2(C)C)C(C)(C)C[C@H](O)C1 | no (0) |
| CC(C)OC(=O)C(C)(C)Oc1ccc(C(=O)c2ccc(Cl)cc2)cc1 | no (0) |
| Cc1[nH]c(C)c(Cl)c(=O)c1Cl | no (0) |
| CC(C(=O)O)c1cccc(C(=O)c2ccccc2)c1 (stereo not given) | no (0) |
| CN(C)C(=S)SSC(=S)N(C)C | yes (1) |
| CN1CCCN=C1COC(=O)C(O)(c1ccccc1)C1CCCCC1 (stereo not given) | no (0) |
| COc1cc2c(cc1OC)Cc1cc(OC)c(OC)cc1Cc1cc(OC)c(OC)cc1C2 | no (0) |
| CC(C(=O)O)c1ccc(-c2ccccc2)c(F)c1 (stereo not given) | no (0) |
| CC1=C(C(C)O)C2=NC1C=c1[nH]c(c(C)c1C(C)O)=Cc1[nH]c(c(CCC(=O)O)c1C)C=c1[nH]c(c(C)c1CCC(=O)O)=C2 (stereo not given) | no (0) |
| CC(Oc1ccccc1)C(=O)N[C@@H]1C(=O)N2[C@@H]1SC(C)(C)[C@@H]2C(=O)O (stereo not given in full) | no (0) |
| CS(=O)(=O)c1ccc(C2=C(c3ccccc3)C(=O)OC2)cc1 | no (0) |
| Cc1cccc(C)c1OCC(C)N (stereo not given) | no (0) |
| COc1cc(O)c(C(=O)/C=C/c2ccc(O)c(OC)c2)c(OC)c1 | no (0) |
| CC1CC2C3CC(F)C4=CC(=O)C=CC4(C)C3(F)C(O)CC2(C)C1(O)C(=O)CO (stereo not given) | no (0) |
| COc1cc2c(cc1OC)[C@@H]1C(=O)c3ccc4oc(C(C)C)cc4c3O[C@@H]1CO2 | no (0) |
| CC(=O)N[C@@H](CC(C)C)C(=O)O | no (0) |
| COc1ccc2c(c1)OCc1c-2oc2cc(OC)ccc12 | yes (1) |
| CN1CCC(=C2c3ccccc3CCc3sccc32)CC1 | no (0) |
